Provide the recorded EC90 for the entries that follow.
assay: Example 4: dose response of FKBP constructs 160-255, Ec50, Ec90 and fold change (raw and normalized to mCherry); assay type: cell-based; details: FKBP constructs 160-255; not normalized; read-out: EC90
Enter your answer as a number in nM; do not include the unit.

Prompt: Determine from records and report EC90 for FKBP-169 (protein, Description of sequence: Construct Name: FKBP-169; Mutation(s): Q72R T82W Q84E A117W DRD M54A) HCPIKSRKGDVLHAHYTGKLEDGTEFDSSLPRNQPFVFSLGWGEVIKGWDQGLLGMCEGEKRKLVIPSELGYGERGWPPKIPGGATLVFEVELLKIER
Response: 448

Prompt: Determine from records and report EC90 for FKBP-161 (protein, Description of sequence: Construct Name: FKBP-161; Mutation(s): Q72R Q84E A117W DRD M54S V85R) HCPIKSRKGDVLHSHYTGKLEDGTEFDSSLPRNQPFVFSLGTGERIKGWDQGLLGMCEGEKRKLVIPSELGYGERGWPPKIPGGATLVFEVELLKIER
Response: 512

Prompt: Determine from records and report EC90 for FKBP-194 (protein, Description of sequence: Construct Name: FKBP-194; Mutation(s): Q72R Q84E A117W V85R DRD L104V) HCPIKSRKGDVLHMHYTGKLEDGTEFDSSLPRNQPFVFSLGTGERIKGWDQGLLGMCEGEKRKVVIPSELGYGERGWPPKIPGGATLVFEVELLKIER
Response: 102

Prompt: Determine from records and report EC90 for FKBP-225 (protein, Description of sequence: Construct Name: FKBP-225; Mutation(s): Q72R Q84E A117W V85R DRD P43R) HCRIKSRKGDVLHMHYTGKLEDGTEFDSSLPRNQPFVFSLGTGERIKGWDQGLLGMCEGEKRKLVIPSELGYGERGWPPKIPGGATLVFEVELLKIER
Response: 25.4

Prompt: Determine from records and report EC90 for FKBP-226: FKBP13 DRD-AcGFP construct of Table 10 (protein, Description of sequence: Construct Name: FKBP-226; Mutation(s): Q72R Q84E A117W V85R DRD P43R M54A) HCRIKSRKGDVLHAHYTGKLEDGTEFDSSLPRNQPFVFSLGTGERIKGWDQGLLGMCEGEKRKLVIPSELGYGERGWPPKIPGGATLVFEVELLKIER
Response: 44.6

Prompt: Determine from records and report EC90 for FKBP-202 (protein, Description of sequence: Construct Name: FKBP-202; Mutation(s): Q72R Q84E A117W V85R DRD M54A G49S) HCPIKSRKSDVLHAHYTGKLEDGTEFDSSLPRNQPFVFSLGTGERIKGWDQGLLGMCEGEKRKLVIPSELGYGERGWPPKIPGGATLVFEVELLKIER
Response: 1010
